Tested target: AKT (Homo sapiens, UniProt Q9Y243)
Construct: Kinases are expressed as either kinase domains or full length constructs; made in house
Sequence (Q9Y243 whole entry, the tested form may be a part): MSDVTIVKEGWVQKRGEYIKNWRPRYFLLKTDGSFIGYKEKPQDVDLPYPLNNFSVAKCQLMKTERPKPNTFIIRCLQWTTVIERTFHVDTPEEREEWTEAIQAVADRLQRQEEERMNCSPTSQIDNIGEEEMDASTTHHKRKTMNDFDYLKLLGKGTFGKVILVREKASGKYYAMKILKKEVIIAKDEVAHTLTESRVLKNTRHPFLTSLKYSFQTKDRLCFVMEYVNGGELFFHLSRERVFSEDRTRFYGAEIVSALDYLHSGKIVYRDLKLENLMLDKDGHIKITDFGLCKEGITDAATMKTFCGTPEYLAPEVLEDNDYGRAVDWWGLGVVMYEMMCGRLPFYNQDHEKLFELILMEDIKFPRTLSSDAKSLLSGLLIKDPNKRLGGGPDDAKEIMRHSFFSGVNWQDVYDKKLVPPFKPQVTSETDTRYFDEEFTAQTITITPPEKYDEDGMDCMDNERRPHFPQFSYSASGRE
Protocol notes: Kinase inhibition assay (33P transfer), AKT
Assay type: biochemical
Condition description: Table 2, kinase inhibition class; read-out: AKT3-1
Endpoint name: IC50

Reference set, count: 4
> print(dat)
                                   compound           result
1  O=c1[nH]c2ccccc2n1-c1ncnc(Nc2ccc(Cl)cc2)n1        > 13.3 µM
2  COc1cc(Nc2ncnc(N(c3ccc(Cl)cc3)c3nc4ccccc4[nH]3)n2)cc(OC)c1OC        > 8.93 µM
3  COc1cc(Nc2ncnc(Nc3ccc4c(ccn4Cc4ccccc4)c3)n2)cc(OC)c1OC  7.25 to 9.33 µM
4  COc1cc(Nc2ncnc(-c3ccc(N4CCOCC4)nc3)n2)cc(OC)c1OC        > 10.6 µM

// query Lookup: IC50 / AKT (Homo sapiens, UniProt Q9Y243) / `COc1cc(Nc2ncnc(Nc3ccc(C)c(O)c3)n2)cc(OC)c1OC`
// result > 11.7 µM

// query Now the compound `O=c1[nH]c2ccccc2n1-c1ncnc(Nc2ccccc2[N+](=O)[O-])n1`
// result > 12.9 µM

// query Now the compound `CNc1ncnc(Nc2cc(OC)c(OC)c(OC)c2)n1`
// result > 15.4 µM
